Provenance of the data: ChEMBL document CHEMBL1201862

- System: OVCAR-4
- assay-procedure: NCI tumour cell line growth inhibition, 48 h
The source made the active and inactive calls. Cut-off read from the data, not from the text of the source: active = GI50 up to about 1.1 µM and inactive = higher.
quantity: GI50

# input Given the molecule COc1cc(/C=C/c2ccncc2)cc(OC)c1OC , what is its reported GI50?
# output 76.9 µM (inactive)

# input Request: C=C1C(NC)CCC23CC24CCC2(C)C(C(C)=O)C(O)CC2(C)C4CCC13 (configuration not stated)
# output > 100 µM (inactive)

# input Request: COc1ccc(/C=N/n2c(Cc3ccccc3)n[nH]c2=O)cc1
# output > 100 µM (inactive)

# input Request: COc1cc(C2c3cc4c(c(O)c3C(=O)C3CCC(=O)N32)OCO4)cc(OC)c1OC (configuration not stated)
# output > 100 µM (inactive)

# input Request: O=C(CC1(O)C(=O)Nc2ccccc21)c1cccc(O)c1 (configuration not stated)
# output > 100 µM (inactive)

# input Request: OCc1nnn2c1CCC2
# output 76 µM (inactive)

# input Request: CN(Cc1ccccc1)C(=O)c1ccccc1C(=O)O
# output > 100 µM (inactive)

# input Request: Oc1c(-c2ccccc2)sc2ccccc12
# output 37.9 µM (inactive)

# input Request: O=c1c(C(c2ccc3c(c2)Cc2ccccc2-3)c2c(O)oc3ccccc3c2=O)c(O)oc2ccccc12
# output 31.8 µM (inactive)

# input Request: Cc1ccc(-c2n[nH]c(=O)n2N2C(=O)C=CC2=O)cc1
# output > 100 µM (inactive)

# input Request: COc1ccc(C2=C(Cl)c3cc(OC)c(OC)cc3C2Cl)cc1 (configuration not stated)
# output 13.6 µM (inactive)

# input Request: CC(=O)Nc1ccc(Nc2cc(O)nc(O)n2)cc1
# output > 100 µM (inactive)

# input Request: COC1OC(Cn2c(C)nc(Br)c2Br)C(O)C(O)C1O (configuration not stated)
# output > 100 µM (inactive)

# input Request: O=C1c2cccc3cccc(c23)C(=O)N1CCCNCCCNCCCCNCCCNCCCN1C(=O)c2cccc3cccc(c23)C1=O
# output 2.83 µM (inactive)

# input Request: CCCN(CCC)c1c([N+](=O)[O-])cc(S(N)(=O)=O)cc1[N+](=O)[O-] [ORYZALIN]
# output 14 µM (inactive)

# input Request: O=c1cc(/C=C/c2ccc(O)c(O)c2)cc(/C=C/c2ccc(O)c(O)c2)o1
# output 14.3 µM (inactive)

# input Request: Cc1cc2occ(-c3ccc(Cl)cc3)c2c(=O)o1
# output > 100 µM (inactive)

# input Request: O=C1c2cccc([N+](=O)[O-])c2C(=O)c2nccnc21
# output 1.42 µM (inactive)

# input Request: CCOC(=O)CCC(NC(=O)Cc1ccc(Oc2nc3ccccc3nc2-c2cccs2)cc1)C(=O)OCC (configuration not stated)
# output 13.5 µM (inactive)

# input Request: C#CCn1c(=O)c(Cl)cn(/C(=C/C(=O)OCC)C(=O)OCC)c1=O
# output 17.2 µM (inactive)

# input Request: CCN(CC)N1C(=O)[N-][N+](CC)(CC)C1=O
# output > 100 µM (inactive)

# input Request: O=[N+]([O-])/C(C(Cl)=C(Cl)Cl)=C(/Nc1ccccc1)Sc1ccccc1
# output 19.7 µM (inactive)

====

Provide the reported GI50 of each item.
- Test system: A498
- assay-procedure: NCI tumour cell line growth inhibition, 48 h
The source made the active and inactive calls. No stated cut-off is given here; in the data, active = GI50 up to about 1.1 µM and inactive = higher.

# input What is its GI50 for A498? Entry: Cc1ccc([N+](=O)[O-])c2c(NCCC[N+](C)(C)[O-])c3ccccc3nc12
# output 1.89 µM (inactive)

# input Request: COc1ccc(/C=C/c2cc(=O)cc(/C=C/c3ccc(OC)c(O)c3)o2)cc1O
# output 3.53 µM (inactive)

# input Request: Cc1cc2occ(-c3ccc(Cl)cc3)c2c(=O)o1
# output > 100 µM (inactive)

# input Request: CC1=CCC[C@@](C)(O)[C@@H]2C[C@H]3C(CSc4ccccc4)C(=O)O[C@H]3[C@@H](O2)[C@H](C)CCC1 (stereo not given in full)
# output 18 µM (inactive)

# input Request: COC(=O)[C@H](C)N(C)C(=O)[C@H](C)N1[C@@H](c2ccccc2)COC1(C)C
# output > 100 µM (inactive)

# input Request: CC(=O)OC1CCC2C(=CCC3C2(C)C(=O)CC2(C)C(C4(C)OC(C(C)C)=CC4=O)C(O)CC32C)C1(C)C (stereo not given)
# output > 100 µM (inactive)

# input Request: CN(CCC(=O)O)C1=Nc2ccc(Cl)cc2C(c2ccccc2)=[N+]([O-])C1
# output > 100 µM (inactive)

# input Request: O=C(O)c1ccc(C2C(=O)N[C@@H]3CCC[C@H]23)cc1 (stereo not given in full)
# output > 100 µM (inactive)

# input Request: CN(/N=C\c1ccc2ccccc2c1)C1=NCCN1
# output 12.1 µM (inactive)

# input Request: COC(=O)CCN(CCC(=O)OC)C1CC1
# output > 100 µM (inactive)
